# System: Es-2
# measurement description: Primary qHTS to identify gynecologic anti-cancer compounds using libraries of approved drugs and bioactive compounds (AID 1345084); further: nearly all actives have a fitted effect of over 55% in size
# condition label: Gynecologic cancer cell panel viability, ATPlite luminescence, 48 h; series mostly up to 57.5 µM
Records with an inconclusive call do not appear. Calls of active or inactive are those of the source. The call rests on the fitted dose curve; in most records, active means well fitted cell-killing curve with a large enough effect; inconclusive means small, poorly fitted or top-dose-only effect, or effect the other way; inactive means flat fitted curve, though single readings scatter.
Outcome codes: active, inactive

> print(dat)
                                    molecule  class.label
 1  CC(C)C[C@H](NC(=O)[C@@H](NC(=O)c1cccc(-c2ccccc2)n1)[C@@H](C)O)B(O)O       active
 2  Cc1cncc2cccc(S(=O)(=O)N3CCCN(C(=O)CN)C[C@@H]3C)c12     inactive
 3  C=CC(=O)Nc1ccc2ncnc(Nc3ccc(OCc4cccc(F)c4)c(Cl)c3)c2c1     inactive
 4  CCc1nc(-c2cccc(C)c2)c(-c2ccnc(NC(=O)c3ccccc3)c2)s1     inactive
 5            O=C(Nc1cc2cc[nH]c2cn1)c1ccccc1       active
 6  O=C(Nc1ccc(Oc2ccnc3[nH]ccc23)c(F)c1)c1cccn(-c2ccc(F)cc2)c1=O     inactive
 7  N[C@H]1CN(c2c(F)cc3c(=O)c(C(=O)O)cn(C4C[C@@H]4F)c3c2Cl)CC12CC2 (stereo not given in full)     inactive
 8         CCCCOc1ccc(C(=O)Nc2ccc(F)cc2F)cc1     inactive
 9  OCCNC1CCCc2c1[nH]c1ccc(-c3ccccc3)cc21 (stereo not given)     inactive
10    Cc1coc2c1C(=O)C(=O)c1c-2ccc2c(C)cccc12     inactive
